Values were extracted from ChEMBL document CHEMBL2010781.

Data export: pIC50 values recorded with UniProt:P00750.
Sequence (P00750 whole entry): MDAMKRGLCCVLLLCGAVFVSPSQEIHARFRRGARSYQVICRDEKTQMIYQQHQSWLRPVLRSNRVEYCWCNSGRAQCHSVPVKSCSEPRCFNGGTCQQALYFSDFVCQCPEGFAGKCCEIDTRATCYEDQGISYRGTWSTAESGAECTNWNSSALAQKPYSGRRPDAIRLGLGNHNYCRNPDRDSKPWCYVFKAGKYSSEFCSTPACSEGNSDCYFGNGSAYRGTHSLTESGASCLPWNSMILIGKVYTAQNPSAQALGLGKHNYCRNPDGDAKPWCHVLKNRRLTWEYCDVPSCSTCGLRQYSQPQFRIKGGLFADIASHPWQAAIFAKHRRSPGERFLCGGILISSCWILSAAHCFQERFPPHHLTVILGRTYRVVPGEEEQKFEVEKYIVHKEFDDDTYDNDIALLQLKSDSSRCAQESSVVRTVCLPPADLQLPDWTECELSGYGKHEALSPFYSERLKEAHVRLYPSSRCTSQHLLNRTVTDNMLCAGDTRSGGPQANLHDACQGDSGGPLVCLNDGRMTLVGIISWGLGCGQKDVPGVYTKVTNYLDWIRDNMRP
pIC50: −log10 of the molar value.

Use the examples below as a reference point.
N=C(N)NC(=O)c1nc(Cl)c(NCC(=O)O)nc1N : < 3.60
N=C(N)c1nc(Cl)c(NCC(=O)O)nc1N : < 3.60
N=C(N)c1ncc(NCC(=O)O)nc1N : < 3.60
N=C(NO)c1nc(Cl)c(NCC(=O)OCc2ccccc2)nc1N : 3.70
N=C(NO)c1ncc(NCC(=O)O)nc1N : < 3.60
NC(N)=NC(=O)c1nc(Cl)c(NCC(=O)OCc2ccccc2)nc1N : < 3.72
N=C(N)NC(=O)c1nc(Cl)c(N)nc1N [AMILORIDE] : 3.66

Prompt line: Find pIC50 (UniProt:P00750) for the entry `N=C(N)c1nc(Cl)c(NCC(=O)OCc2ccccc2)nc1N`
Response line: 3.70

###

IC50 tested on UniProtKB P00749: recorded values
measurement_type: IC50 (µM)

// below: answered molecules
N=C(N)c1nc(Cl)c(NCC(=O)OCc2ccccc2)nc1N : 4
NC(=O)c1nc(Cl)c(NCC(=O)OCc2ccccc2)nc1N : 69
N=C(N)NC(=O)c1nc(Cl)c(NCC(=O)O)nc1N : 17

(a) NC(N)=NC(=O)c1ncc(NCC(=O)O)nc1N
(b) N=C(NO)c1nc(Cl)c(NCC(=O)OCc2ccccc2)nc1N
Prompt line: Recorded IC50 values differ for a and b ; which one is higher? Indicate which entry you chose by stating its label.
Response line: b

###

- experimental_system: Plasminogen (Homo sapiens, UniProt P00747)
- Sequence (P00747 97-580 limits assumed): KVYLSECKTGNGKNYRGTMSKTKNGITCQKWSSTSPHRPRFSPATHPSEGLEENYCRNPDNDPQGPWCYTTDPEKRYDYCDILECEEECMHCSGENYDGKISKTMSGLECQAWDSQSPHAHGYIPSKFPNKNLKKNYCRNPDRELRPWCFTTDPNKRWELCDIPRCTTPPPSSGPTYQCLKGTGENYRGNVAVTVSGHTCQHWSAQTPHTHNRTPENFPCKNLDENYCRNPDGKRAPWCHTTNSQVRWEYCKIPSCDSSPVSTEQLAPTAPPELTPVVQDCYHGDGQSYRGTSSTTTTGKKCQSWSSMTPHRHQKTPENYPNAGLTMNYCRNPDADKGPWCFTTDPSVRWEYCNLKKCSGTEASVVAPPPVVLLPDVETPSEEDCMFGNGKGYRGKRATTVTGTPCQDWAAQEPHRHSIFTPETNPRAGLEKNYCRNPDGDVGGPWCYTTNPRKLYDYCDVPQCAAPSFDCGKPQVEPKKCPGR
- Sequence (P00747 581-810 limits assumed): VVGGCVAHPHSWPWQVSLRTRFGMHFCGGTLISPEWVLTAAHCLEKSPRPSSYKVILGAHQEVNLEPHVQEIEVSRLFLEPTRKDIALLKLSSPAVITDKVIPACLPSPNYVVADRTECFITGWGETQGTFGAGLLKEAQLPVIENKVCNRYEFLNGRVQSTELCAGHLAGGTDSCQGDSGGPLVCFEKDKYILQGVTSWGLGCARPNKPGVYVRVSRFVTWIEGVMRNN
- assay: Inhibition of plasmin using tosyl-Gly-Pro-Lys-pNA as substrate by spectrophotometry
Item-by-item account of IC50

Look over these answered cases.
N=C(N)c1ncc(NCC(=O)O)nc1N : > 250 µM
N=C(N)NC(=O)c1nc(Cl)c(N)nc1N [AMILORIDE] : > 250 µM

Please look at the following compound next.
Prompt line: // returns reported IC50 for input `N=C(N)NC(=O)c1nc(Cl)c(NCC(=O)O)nc1N`
Response line: > 250 µM
